Numbers sourced from ChEMBL document CHEMBL1153560.

- System: Corynebacterium minutissimum
- protocol details: Antibacterial activity against Corynebacterium minutissimum isolated from patient with diabetic foot infection after 48 hrs by broth microdilution method
- Type: functional
assay metric: MIC90

Example entries begin here.
C[C@@H](O)[C@H]1C(=O)N2C(C(=O)O)=C(S[C@@H]3CN[C@H](C(=O)N(C)C)C3)[C@H](C)[C@H]12    16 µg/mL
C[C@@H](O)[C@H]1C(=O)N2C(C(=O)O)=C(S[C@@H]3CN[C@H](C(=O)Nc4cccc(C(=O)O)c4)C3)[C@H](C)[C@H]12    32 µg/mL
C[C@@H](O)[C@H]1C(=O)N2C(C(=O)O)=C(SCCNC=N)C[C@H]12 [IMIPENEM ANHYDROUS]    32 µg/mL

Item under review: CCC[C@@H]1C[C@@H](C(=O)N[C@@H]([C@H]2O[C@H](SC)[C@H](O)[C@@H](O)[C@H]2O)[C@H](C)Cl)N(C)C1 . Reported MIC90? > 64 µg/mL

Which MIC90 value belongs to C[C@@H](O)[C@H]1C(=O)N2C(C(=O)O)=C(S[C@@H]3CN[C@H](CNS(N)(=O)=O)C3)[C@H](C)[C@H]12 ? 8 µg/mL

----------
- Tested on: Finegoldia magna
- protocol details: Antibacterial activity against Finegoldia magna isolated from patient with diabetic foot infection after 44 to 48 hrs by agar dilution method
- Assay type: functional
Readings of MIC90 for the listed compounds
Please respond with the number in µg/mL and leave the unit unwritten.

Study these solved cases before continuing.
Cc1ncc([N+](=O)[O-])n1CCO [METRONIDAZOLE]    1
C[C@@H](O)[C@H]1C(=O)N2C(C(=O)O)=C(SCCNC=N)C[C@H]12 [IMIPENEM ANHYDROUS]    0.06

// next item, MIC90 requested
Look at this compound and give its reported MIC90. C[C@@H](O)[C@H]1C(=O)N2C(C(=O)O)=C(S[C@@H]3CN[C@H](CNS(N)(=O)=O)C3)[C@H](C)[C@H]12 [DORIPENEM] 0.125

----------
- Tested on: Bacteroides thetaiotaomicron
- protocol details: Antibacterial activity against Bacteroides thetaiotaomicron isolated from patient with diabetic foot infection assessed as percent resistant isolates after 44 to 48 hrs by agar dilution method
- Assay type: functional
Measured Activity, listed per entry for reference.
Express your answer as a number followed by its unit.

Cc1ncc([N+](=O)[O-])n1CCO    0%
C[C@@H](O)[C@H]1C(=O)N2C(C(=O)O)=C(S[C@@H]3CN[C@H](CNS(N)(=O)=O)C3)[C@H](C)[C@H]12    0%
C[C@@H](O)[C@H]1C(=O)N2C(C(=O)O)=C(SCCNC=N)C[C@H]12 [IMIPENEM ANHYDROUS]    0%

Need Activity of CCC[C@@H]1C[C@@H](C(=O)N[C@@H]([C@H]2O[C@H](SC)[C@H](O)[C@@H](O)[C@H]2O)[C@H](C)Cl)N(C)C1 , thanks. 20%

Name the recorded Activity for C[C@@H](O)[C@H]1C(=O)N2C(C(=O)O)=C(S[C@@H]3CN[C@H](C(=O)Nc4cccc(C(=O)O)c4)C3)[C@H](C)[C@H]12 . 0%

Consider the compound C[C@@H](O)[C@H]1C(=O)N2C(C(=O)O)=C(S[C@@H]3CN[C@H](C(=O)N(C)C)C3)[C@H](C)[C@H]12 and give its measured Activity. 0%

----------
- System: Finegoldia magna
- protocol details: Antibacterial activity against Finegoldia magna isolated from patient with diabetic foot infection after 44 to 48 hrs by agar dilution method
- Format: functional
assay metric: MIC90 (µg/mL)
All answers are understood in µg/mL, so give the number only.

CCC[C@@H]1C[C@@H](C(=O)N[C@@H]([C@H]2O[C@H](SC)[C@H](O)[C@@H](O)[C@H]2O)[C@H](C)Cl)N(C)C1    2
C[C@@H](O)[C@H]1C(=O)N2C(C(=O)O)=C(S[C@@H]3CN[C@H](C(=O)N(C)C)C3)[C@H](C)[C@H]12    0.125

# input for lookup
Can you share its MIC90? I mean this compound: C[C@@H](O)[C@H]1C(=O)N2C(C(=O)O)=C(S[C@@H]3CN[C@H](C(=O)Nc4cccc(C(=O)O)c4)C3)[C@H](C)[C@H]12 0.125

----------
Quick reference for MIC50 among some molecules
- Test system: Corynebacterium xerosis
- protocol details: Antibacterial activity against Corynebacterium xerosis isolated from patient with diabetic foot infection after 48 hrs by broth microdilution method
- Type: functional
Respond numerically; units are µg/mL and should not be typed.

Example molecules with recorded MIC50:
CCC[C@@H]1C[C@@H](C(=O)N[C@@H]([C@H]2O[C@H](SC)[C@H](O)[C@@H](O)[C@H]2O)[C@H](C)Cl)N(C)C1    2
C[C@@H](O)[C@H]1C(=O)N2C(C(=O)O)=C(S[C@@H]3CN[C@H](C(=O)N(C)C)C3)[C@H](C)[C@H]12    0.125
C[C@@H](O)[C@H]1C(=O)N2C(C(=O)O)=C(SCCNC=N)C[C@H]12 [IMIPENEM ANHYDROUS]    0.03
C[C@@H](O)[C@H]1C(=O)N2C(C(=O)O)=C(S[C@@H]3CN[C@H](C(=O)Nc4cccc(C(=O)O)c4)C3)[C@H](C)[C@H]12    0.5

Turning now to a further record.
Test system Corynebacterium xerosis; read-out MIC50; what value for C[C@@H](O)[C@H]1C(=O)N2C(C(=O)O)=C(S[C@@H]3CN[C@H](CNS(N)(=O)=O)C3)[C@H](C)[C@H]12 ? 0.125

----------
- System: Klebsiella pneumoniae
- protocol details: Antibacterial activity against Klebsiella pneumoniae isolated from patient with diabetic foot infection after 18 to 24 hrs by broth microdilution method
- Format: functional
assay metric: MIC50 (µg/mL)
Numbers only; they are read as µg/mL.

Reference set (2 entries):
C[C@@H](O)[C@H]1C(=O)N2C(C(=O)O)=C(S[C@@H]3CN[C@H](CNS(N)(=O)=O)C3)[C@H](C)[C@H]12    0.06
C[C@@H](O)[C@H]1C(=O)N2C(C(=O)O)=C(S[C@@H]3CN[C@H](C(=O)N(C)C)C3)[C@H](C)[C@H]12    0.03

// next entry
Could you share what MIC50 was measured for C[C@@H](O)[C@H]1C(=O)N2C(C(=O)O)=C(SCCNC=N)C[C@H]12 [IMIPENEM ANHYDROUS] , tested on Klebsiella pneumoniae? 0.25

----------
- Test system: Corynebacterium amycolatum
- protocol details: Antibacterial activity against Corynebacterium amycolatum isolated from patient with diabetic foot infection after 48 hrs by broth microdilution method
- Type: functional
assay metric: MIC50 (µg/mL)
Field format: number, assumed µg/mL, no unit text.

// solved cases for MIC50 follow
C[C@@H](O)[C@H]1C(=O)N2C(C(=O)O)=C(S[C@@H]3CN[C@H](CNS(N)(=O)=O)C3)[C@H](C)[C@H]12 [DORIPENEM]    1
C[C@@H](O)[C@H]1C(=O)N2C(C(=O)O)=C(SCCNC=N)C[C@H]12 [IMIPENEM ANHYDROUS]    0.25

Kindly consider the entry below.
Please report the recorded MIC50 for C[C@@H](O)[C@H]1C(=O)N2C(C(=O)O)=C(S[C@@H]3CN[C@H](C(=O)Nc4cccc(C(=O)O)c4)C3)[C@H](C)[C@H]12 [ERTAPENEM] . 1

----------
- System: Pseudomonas aeruginosa
- protocol details: Antibacterial activity against Pseudomonas aeruginosa isolated from patient with diabetic foot infection after 18 to 24 hrs by broth microdilution method
- Type: functional
assay metric: MIC50 (µg/mL)
Record the value in µg/mL, omitting the unit from your answer.

C[C@@H](O)[C@H]1C(=O)N2C(C(=O)O)=C(S[C@@H]3CN[C@H](CNS(N)(=O)=O)C3)[C@H](C)[C@H]12 [DORIPENEM]    0.25
C[C@@H](O)[C@H]1C(=O)N2C(C(=O)O)=C(S[C@@H]3CN[C@H](C(=O)Nc4cccc(C(=O)O)c4)C3)[C@H](C)[C@H]12 [ERTAPENEM]    8
C[C@@H](O)[C@H]1C(=O)N2C(C(=O)O)=C(S[C@@H]3CN[C@H](C(=O)N(C)C)C3)[C@H](C)[C@H]12 [MEROPENEM]    0.5

Now turn to the next molecule.
Which value of MIC50 has been reported for C[C@@H](O)[C@H]1C(=O)N2C(C(=O)O)=C(SCCNC=N)C[C@H]12 [IMIPENEM ANHYDROUS] in the records? 2

----------
- Test system: Streptococcus agalactiae
- protocol details: Antibacterial activity against Streptococcus agalactiae isolated from patient with diabetic foot infection after 18 to 24 hrs by broth microdilution method
- Assay type: functional
Recorded MIC90, one value per entry.

C[C@@H](O)[C@H]1C(=O)N2C(C(=O)O)=C(S[C@@H]3CN[C@H](C(=O)N(C)C)C3)[C@H](C)[C@H]12 [MEROPENEM]    0.06 µg/mL
C[C@@H](O)[C@H]1C(=O)N2C(C(=O)O)=C(SCCNC=N)C[C@H]12 [IMIPENEM ANHYDROUS]    ≤ 0.015 µg/mL
C[C@@H](O)[C@H]1C(=O)N2C(C(=O)O)=C(S[C@@H]3CN[C@H](CNS(N)(=O)=O)C3)[C@H](C)[C@H]12 [DORIPENEM]    0.03 µg/mL
C[C@@H](O)[C@H]1C(=O)N2C(C(=O)O)=C(S[C@@H]3CN[C@H](C(=O)Nc4cccc(C(=O)O)c4)C3)[C@H](C)[C@H]12 [ERTAPENEM]    0.06 µg/mL

Below: the item to evaluate.
MIC90 for CCC[C@@H]1C[C@@H](C(=O)N[C@@H]([C@H]2O[C@H](SC)[C@H](O)[C@@H](O)[C@H]2O)[C@H](C)Cl)N(C)C1 [CLINDAMYCIN] ? > 64 µg/mL
